test system: SWI/SNF-related matrix-associated actin-dependent regulator of chromatin subfamily A member 2 (Homo sapiens)
Sequence (P51531 whole entry): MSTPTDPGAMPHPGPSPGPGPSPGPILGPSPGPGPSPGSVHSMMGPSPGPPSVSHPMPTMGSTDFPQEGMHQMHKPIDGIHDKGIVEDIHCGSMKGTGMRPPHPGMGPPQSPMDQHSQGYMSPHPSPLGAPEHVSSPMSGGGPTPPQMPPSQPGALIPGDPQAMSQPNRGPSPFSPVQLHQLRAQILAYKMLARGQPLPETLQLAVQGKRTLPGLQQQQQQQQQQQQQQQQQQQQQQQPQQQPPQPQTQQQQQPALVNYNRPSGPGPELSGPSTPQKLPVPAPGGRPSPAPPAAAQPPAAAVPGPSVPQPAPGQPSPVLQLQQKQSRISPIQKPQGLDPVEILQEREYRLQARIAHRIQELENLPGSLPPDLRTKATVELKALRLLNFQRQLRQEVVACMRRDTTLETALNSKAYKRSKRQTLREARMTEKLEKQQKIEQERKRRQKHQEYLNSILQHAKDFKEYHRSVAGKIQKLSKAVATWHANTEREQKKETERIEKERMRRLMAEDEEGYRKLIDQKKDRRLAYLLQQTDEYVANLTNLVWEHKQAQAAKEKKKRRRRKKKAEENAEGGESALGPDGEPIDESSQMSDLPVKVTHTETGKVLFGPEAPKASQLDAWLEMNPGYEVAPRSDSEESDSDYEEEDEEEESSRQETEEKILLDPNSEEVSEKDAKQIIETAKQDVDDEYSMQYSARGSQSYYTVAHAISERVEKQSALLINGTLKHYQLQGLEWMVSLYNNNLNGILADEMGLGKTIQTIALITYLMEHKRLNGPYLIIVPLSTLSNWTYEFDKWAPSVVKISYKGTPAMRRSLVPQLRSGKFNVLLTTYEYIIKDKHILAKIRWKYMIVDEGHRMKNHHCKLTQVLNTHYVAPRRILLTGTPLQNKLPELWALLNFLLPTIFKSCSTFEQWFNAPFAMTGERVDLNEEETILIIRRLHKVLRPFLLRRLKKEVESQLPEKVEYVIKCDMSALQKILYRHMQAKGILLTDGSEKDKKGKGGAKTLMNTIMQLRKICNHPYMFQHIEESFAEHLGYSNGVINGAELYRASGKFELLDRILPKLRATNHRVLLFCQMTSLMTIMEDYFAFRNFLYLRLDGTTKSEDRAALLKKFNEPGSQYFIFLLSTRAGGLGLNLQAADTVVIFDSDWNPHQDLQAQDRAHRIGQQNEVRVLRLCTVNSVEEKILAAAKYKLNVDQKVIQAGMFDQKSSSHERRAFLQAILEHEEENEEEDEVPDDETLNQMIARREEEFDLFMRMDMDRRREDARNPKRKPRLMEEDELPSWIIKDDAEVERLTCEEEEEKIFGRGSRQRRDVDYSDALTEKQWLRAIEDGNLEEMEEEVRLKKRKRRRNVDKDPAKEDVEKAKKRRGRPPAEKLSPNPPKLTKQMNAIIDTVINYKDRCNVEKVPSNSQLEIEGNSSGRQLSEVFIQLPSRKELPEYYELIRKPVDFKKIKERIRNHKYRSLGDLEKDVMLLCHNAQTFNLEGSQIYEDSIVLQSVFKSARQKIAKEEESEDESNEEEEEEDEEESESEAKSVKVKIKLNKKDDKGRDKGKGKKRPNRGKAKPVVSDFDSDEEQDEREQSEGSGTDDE
attribute measured: IC50

- Cc1ncsc1-c1ccc(CNC(=O)[C@H]2C[C@H](O)CN2C(=O)[C@H](NC(=O)C2(F)CC2)C(C)(C)C)c(OCCOc2ccc(CN3CCN(c4cc(-c5ccccc5O)nnc4N)CC3)cc2)c1: 770 nM

====

test system: SWI/SNF-related matrix-associated actin-dependent regulator of chromatin subfamily A member 4 (Homo sapiens)
Sequence (P51532 whole entry): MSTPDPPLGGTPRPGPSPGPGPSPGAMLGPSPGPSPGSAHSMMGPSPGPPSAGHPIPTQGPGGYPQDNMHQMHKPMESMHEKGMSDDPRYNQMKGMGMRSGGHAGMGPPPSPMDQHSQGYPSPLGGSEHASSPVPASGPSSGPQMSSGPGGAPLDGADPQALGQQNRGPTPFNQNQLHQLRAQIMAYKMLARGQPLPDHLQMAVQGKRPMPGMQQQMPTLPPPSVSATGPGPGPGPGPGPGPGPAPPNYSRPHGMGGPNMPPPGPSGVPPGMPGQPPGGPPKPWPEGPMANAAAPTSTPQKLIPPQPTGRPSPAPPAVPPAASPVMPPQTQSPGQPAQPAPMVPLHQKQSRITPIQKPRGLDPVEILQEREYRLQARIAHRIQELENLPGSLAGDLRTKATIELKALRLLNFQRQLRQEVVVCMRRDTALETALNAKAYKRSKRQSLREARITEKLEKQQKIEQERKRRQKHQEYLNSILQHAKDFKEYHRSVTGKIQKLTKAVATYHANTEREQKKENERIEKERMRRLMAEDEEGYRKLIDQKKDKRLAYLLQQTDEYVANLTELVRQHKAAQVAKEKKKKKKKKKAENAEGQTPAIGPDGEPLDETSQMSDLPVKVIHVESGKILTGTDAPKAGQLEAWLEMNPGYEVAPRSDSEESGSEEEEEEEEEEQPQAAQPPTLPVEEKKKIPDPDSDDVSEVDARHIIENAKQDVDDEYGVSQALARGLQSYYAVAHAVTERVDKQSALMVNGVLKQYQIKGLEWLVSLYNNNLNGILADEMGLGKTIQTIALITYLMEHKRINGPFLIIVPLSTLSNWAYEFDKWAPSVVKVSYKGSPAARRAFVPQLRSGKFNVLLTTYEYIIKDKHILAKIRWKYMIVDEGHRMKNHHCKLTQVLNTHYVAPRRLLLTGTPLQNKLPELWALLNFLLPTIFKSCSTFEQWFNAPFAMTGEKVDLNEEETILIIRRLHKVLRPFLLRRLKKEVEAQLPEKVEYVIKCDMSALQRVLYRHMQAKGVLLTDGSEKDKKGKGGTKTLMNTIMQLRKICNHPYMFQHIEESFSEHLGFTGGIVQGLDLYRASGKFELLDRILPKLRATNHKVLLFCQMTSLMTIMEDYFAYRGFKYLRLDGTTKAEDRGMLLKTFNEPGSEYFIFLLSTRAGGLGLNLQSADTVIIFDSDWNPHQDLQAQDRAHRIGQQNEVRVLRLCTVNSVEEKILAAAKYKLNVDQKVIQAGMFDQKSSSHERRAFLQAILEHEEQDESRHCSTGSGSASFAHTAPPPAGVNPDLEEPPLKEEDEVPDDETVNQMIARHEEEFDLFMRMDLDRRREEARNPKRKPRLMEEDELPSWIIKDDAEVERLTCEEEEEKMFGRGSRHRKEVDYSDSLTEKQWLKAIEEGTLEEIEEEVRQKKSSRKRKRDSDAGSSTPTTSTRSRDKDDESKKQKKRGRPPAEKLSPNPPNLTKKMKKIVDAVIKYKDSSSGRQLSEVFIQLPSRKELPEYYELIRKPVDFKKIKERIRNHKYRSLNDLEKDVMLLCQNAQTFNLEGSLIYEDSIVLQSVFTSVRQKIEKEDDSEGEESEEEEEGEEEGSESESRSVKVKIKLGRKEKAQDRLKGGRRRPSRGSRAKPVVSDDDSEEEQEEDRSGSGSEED
attribute measured: IC50 (nM)

- Cc1ncsc1-c1ccc(CNC(=O)[C@H]2C[C@H](O)CN2C(=O)[C@H](NC(=O)C2(F)CC2)C(C)(C)C)c(OCCOc2ccc(CN3CCN(c4cc(-c5ccccc5O)nnc4N)CC3)cc2)c1: 560
